Here, each record is paired with measured Concentration of radioactivity, brain, Mean data.
tested on: grafted B16 F0 murine melanoma tumour; assay: Biodistribution of the ^125I-labelled molecules in the melanoma-bearing mouse (autoradiography of whole-body sections); conditions: 1 H after i.v. administration, ^125I-labelled compound
Where a name gives a salt, the structure may show the parent alone.
A number alone suffices; assume % ID/g.

Previously resolved entries follow.
INSERT INTO assay_data (molecule, unitabbrev, recordednumber) VALUES
  ('CCN(CC)CCNC(=O)c1ccc(I)nc1 [compound 7, dihydrochloride]', '% ID/g', 0.64),
  ('CCN(CC)CCNC(=O)c1ccc2cc(I)ccc2c1 [compound 3, hydrochloride]', '% ID/g', 4.37),
  ('CCN(CC)CCNC(=O)c1cc2cc(I)ccc2[nH]1 [compound 10, hydrochloride]', '% ID/g', 4.84),
  ('CCN(CC)CCNC(=O)c1ccc2cc(I)ccc2n1.Cl.Cl [compound 31]', '% ID/g', 1.96),
  ('CCN(CC)CCNC(=O)c1cc2c(I)cccc2s1.Cl [compound 13]', '% ID/g', 0.81);

Let's switch to this molecule now.
## Input Would you kindly share the measured Concentration of radioactivity, brain, Mean for CCN(CC)CCNC(=O)c1nc2ccccn2c1I [compound 16, dihydrochloride] ?
## Output 0.33

====

tested on: grafted B16 F0 murine melanoma tumour; assay: Biodistribution of the ^125I-labelled molecules in the melanoma-bearing mouse (autoradiography of whole-body sections); details: 6 H after i.v. administration, ^125I-labelled compound
Structures can show the parent of a compound that is named as a salt.
Reported values of Concentration of radioactivity, B 16 (tumour), Mean for individual entries
The figure you give is taken to be in % ID/g; do not add the unit.

INSERT INTO assay_data (compound, experimentaltarget, recordednumber) VALUES
  ('CCN(CC)CCNC(=O)c1nc2ccccn2c1I [compound 16, dihydrochloride]', 'grafted B16 F0 murine melanoma tumour', 9.87);

## Input Request the reported Concentration of radioactivity, B 16 (tumour), Mean associated with CCN(CC)CCNC(=O)c1cc2cc(I)ccc2[nH]1 [compound 10, hydrochloride]
## Output 9.84

## Input Suppose we examine the compound CCN(CC)CCNC(=O)c1ccc2cc(I)ccc2n1.Cl.Cl [compound 31] ; what Concentration of radioactivity, B 16 (tumour), Mean value has been reported?
## Output 17.21

## Input # lookup: Concentration of radioactivity, B 16 (tumour), Mean of CCN(CC)CCNC(=O)c1ccc2cc(I)ccc2c1 [compound 3, hydrochloride]
## Output 8.95

## Input // query Concentration of radioactivity, B 16 (tumour), Mean value for entry CCN(CC)CCNC(=O)c1ccc(I)nc1 [compound 7, dihydrochloride]
## Output 6.97

## Input What does the record list as Concentration of radioactivity, B 16 (tumour), Mean for CCN(CC)CCNC(=O)c1cc2c(I)cccc2s1.Cl [compound 13] ?
## Output 8.72

## Input Endpoint output: Concentration of radioactivity, B 16 (tumour), Mean of CCN(CC)CCNC(=O)c1nc2ccc(I)cc2[nH]1.Cl.Cl [compound 26] . Value?
## Output 9.90

====

test system: grafted B16 F0 murine melanoma tumour; assay: Biodistribution of the ^125I-labelled molecules in the melanoma-bearing mouse (autoradiography of whole-body sections); details: 24 H after i.v. administration, ^125I-labelled compound
Where a name gives a salt, the structure may show the parent alone.
Would you mind labelling by Concentration of radioactivity, Sc (stomach contents), Mean? At or over 2 % ID/g is label 1, under is label 0.

These solved cases illustrate the format of a correct answer.
INSERT INTO measurements (molecule, experimentaltarget, cat) VALUES
  ('CCN(CC)CCNC(=O)c1ccc2cc(I)ccc2n1.Cl.Cl [compound 31]', 'grafted B16 F0 murine melanoma tumour', 'label 1'),
  ('CCN(CC)CCNC(=O)c1ccc(I)nc1 [compound 7, dihydrochloride]', 'grafted B16 F0 murine melanoma tumour', 'label 0'),
  ('CCN(CC)CCNC(=O)c1ccc2cc(I)ccc2c1 [compound 3, hydrochloride]', 'grafted B16 F0 murine melanoma tumour', 'label 1'),
  ('CCN(CC)CCNC(=O)c1cc2cc(I)ccc2[nH]1 [compound 10, hydrochloride]', 'grafted B16 F0 murine melanoma tumour', 'label 1');

Pending molecule:
## Input Please indicate if the recorded Concentration of radioactivity, Sc (stomach contents), Mean for CCN(CC)CCNC(=O)c1nc2ccc(I)cc2[nH]1.Cl.Cl [compound 26] meets or exceeds 2 % ID/g.
## Output label 1

Attribution: patent US20100061928A1
